- Assay Notes: Abbreviated pharmacokinetic study in mice after IP administration
- Measurement Parameters: female, CD-1, mouse, plasma, ip, 10 mg/kg
Readout Type: concentration at 2 h (nM)

a. Cn1c(CNc2cccc(C(=O)NCc3ccccc3C(F)(F)F)c2)nnc1-c1ccncc1 [compound 2, reference compound]
b. O=C(NCc1ccn[nH]1)c1cc([C@@H]2CCNC[C@H]2COc2ccc3c(c2)OCO3)ccc1F [14as]
Data request: Would you kindly point out which of a and b has the smaller concentration at 2 h figure? Pick one; state its label.
Data returned: a
(a: 32 nM, b: 1440 nM)

###

- Assay Notes: Abbreviated pharmacokinetic study in mice after IP administration
- Measurement Parameters: female, CD-1, mouse, plasma, ip, 10 mg/kg
Readout Type: concentration at 4 h (nM)

P. Cn1c(CNc2cccc(C(=O)NCc3ccccc3C(F)(F)F)c2)nnc1-c1ccncc1 [compound 2, reference compound]
Q. O=C(NCc1ccn[nH]1)c1cc([C@@H]2CCNC[C@H]2COc2ccc3c(c2)OCO3)ccc1F [14as]
Data request: Sorting by concentration at 4 h in descending order, would P or Q appear first? Field: selected label. Fill in the label of the entry you choose.
Data returned: Q
(Q: 270 nM, P: 5 nM)
